Measured koff by item
tested_target: protein A (UniProt P38507 37-327)
test_summary: Octet HTX (ForteBio), HCAb on AHC sensor, 1:1 fit

binder	koff [s⁻¹]
CNG-HSA-102 (VHH) VHH: KVQLLESGGGLVQPGGSLRLSCAASGFTFSSFGMSWVRQAPGKGLEWVSSISGSGSDTLYADSVRGRFTISRDNSKNTLYLQMNSLRPEDTAVYYCTIGGSLSPSSQGTLVTVSS	0.0002
CNG-HSA-105 (VHH) VHH: EVQLLESGGGLVQPGGSLRLSCAASGFVFSSFGMSWVRQAPGKGLEWVSSISGSGSDTLYADSVKGRFTISRDNSKNTLYLQMNSLRPEDTAVYYCTIGGSLSRSSQGTLVTVSS	0.000297
CNG-HSA-117 (VHH) VHH: KVQLVESGGGLVQPGNSLRLSCAASGFTFSSFGMSWVRQAPGKGLEWVSSISGSGSDTLYADSVKGRFTISRDNSKNTLYLQMNSLRAEDTAVYYCTIGGSLTRSSQGTLVTVSS	0.0002
CNG-HSA-104 (VHH) VHH: KVQLLESGGGLVQPGGSLRLSCAASGFTFHSFGMSWVRQAPGKGLEWVSSISGSGSDTLYADSVKGRFTISRDNSKNTLYLQMNSLRPEDTAVYYCTIGGSLSRSSQGTLVTVSS	0.0002
CNG-HSA-107 (VHH) VHH: KVQLLESGGGLVQPGGSLRLSCAASGFTFSSFGMSWVRQAPGKGLEWVSSISGSGSDTLYADSVRGRFTISRDNSKNTLYLQMNSLRAEDTAVYYCSIGGSLIRSSQGTLVTVSS	0.000333
CNG-HSA-112 (VHH) VHH: KVQLLESGGGLVQPGGSLRLSCAASGFTFPSFGMSWVRQAPGKGLEWVSSISGSGSDTLYADSVKGRFTISRDNAKTTLYLQMNSLRPEDTAVYYCTIGGSVSKSSRGTLVTVSS	0.000375
